system: Escherichia coli TOP10; assay: shrunken log2 fold change of peptide-encoding DNA abundance (4.5 h post-induction vs induction); higher = less antimicrobial activity (less host growth inhibition); details: time post-induction: 4.5 h; library: site-saturation at positions 5, 18, 19, 20;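 further: peptides expressed intracellularly from a pBAD plasmid library in pooled LB shake-flask culture, induced with 0.3% L-arabinose, DNA abundance read by NGS, three biological replicates, DESeq2 with apeglm shrinkage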
Use shrunken log2 fold change to assign classes; range list: b0: < -0.1; b1: ≥ -0.1 and < 0.1; b2: ≥ 0.1

These solved cases illustrate the format of a correct answer.
RRIRSRPPRLPRPRPRPHDKPRP: b0
RRIRIRPPRLPRPRPRPLPQPRP: b0
RRIRRRPPRLPRPRPRPAFKPRP: b2
RRIRWRPPRLPRPRPRPDLNPRP: b2
RRIRNRPPRLPRPRPRPKQCPRP: b0

[ask] Note: place this sequence into its band. Item: RRIRFRPPRLPRPRPRPLGMPRP
[reply] b1

[ask] Note: place this sequence into its band. Item: RRIRWRPPRLPRPRPRPRNAPRP
[reply] b1

[ask] Note: place this sequence into its band. Item: RRIRKRPPRLPRPRPRPMDMPRP
[reply] b2
